assay.target: T1, human IL-36R (on cells) (human, UniProt Q9HB29 20-575)
T1 sequence (looked up): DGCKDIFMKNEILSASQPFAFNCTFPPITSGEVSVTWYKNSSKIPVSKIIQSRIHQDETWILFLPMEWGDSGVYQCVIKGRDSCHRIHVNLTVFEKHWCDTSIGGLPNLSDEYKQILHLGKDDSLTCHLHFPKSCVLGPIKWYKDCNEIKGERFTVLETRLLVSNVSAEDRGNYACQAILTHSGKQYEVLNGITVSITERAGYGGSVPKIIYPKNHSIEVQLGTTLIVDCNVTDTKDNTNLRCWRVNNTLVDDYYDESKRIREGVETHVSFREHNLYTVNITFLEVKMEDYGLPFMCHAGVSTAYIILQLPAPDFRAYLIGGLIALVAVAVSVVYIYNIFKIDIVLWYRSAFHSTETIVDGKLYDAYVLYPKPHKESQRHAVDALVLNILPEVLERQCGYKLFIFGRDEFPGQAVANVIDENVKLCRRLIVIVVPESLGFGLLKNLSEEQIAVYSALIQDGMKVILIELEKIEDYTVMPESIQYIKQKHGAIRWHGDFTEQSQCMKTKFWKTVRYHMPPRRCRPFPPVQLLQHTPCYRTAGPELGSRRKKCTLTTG
assay.details: cell-based or functional assay
metric: EC50 (nM), IL-8 secretion by primary human keratinocytes, 1 ng/ml human IL-36β
// units = nM; emit number, no label

Worked examples, 3 binders total:
binder: Humanized (HzD) 1D9 (APE5281) (antibody, V domains shown, also called 1D9 Humanized) VH: QVQLMQSGAEVKKPGASVKVSCKASGFTFTSYDINWVRQAPGQRLEWMGWIYPGDSSTKYNEKFKGRVTITADKSANTAYMELASLRSEDTAVYFCTRSFYTMDYWGQGTTVTVSS VL: DIVMTQSPLSLPVTPGEPASISCRSSKSLLHSNANTYLYWFLQKPGQSPQLLISRMSNLASGVPDRFSGSGSGTDFTLKISRVEAEDVGVYYCMQHLEYPFTFGQGTKLEIK
measured: 0.053
--
binder: Hzd 18D4 (APE7247) (antibody, V domains shown, also called APE6903; APE07247) VH: DVQFQESGPGLVKPSQTLSLTCTVTGYSITADFAWNWIRQPPGKGLEWIGYISYSGDTNYNPSLKSRVTITRDTSKNQFSLKLSSVTAADTAVYFCAIRGPYSFTYWGQGTLVTVSS VL: DIQMTQSPSSLSASVGDRVTITCRASQWINNYLNWYQQKPGKAPKLLIYYTSMLHSGVPSRFSPSGSGNDYTFTISSLQPEDIATYYCQQGHTLPWTFGGGTKVEIKR
measured: 0.336
--
binder: Hzd 5D3 (APE6060) (antibody, V domains shown, also called 5D3 Humanized) VH: QVQLVQSGAEVKKPGASVKVSCKASGYTFTNYWMNWVRQAPRQGLEWMGMFHPTGDVTRLNQKFKDRVTMTRDTSTSTVYMELSSLRSEDTAVYYCARTTSMIIGGFAYWGQGTLVTVSS VL: DIVMTQTPLSLSVTPGQPASISCRSSKSLLHRNAITYFYWYLQKPGQPPQLLIYQMSNLASGVPDRFSGSGSGTDFTLKISRVEAEDVGVYYCAQNLELPLTFGGGTKVEIK
measured: 0.217

Consider the additional binder presented here.
The reported value for Hzd 5D3 (APE6155) (antibody, V domains shown, also called APE6917; APE06155) VH: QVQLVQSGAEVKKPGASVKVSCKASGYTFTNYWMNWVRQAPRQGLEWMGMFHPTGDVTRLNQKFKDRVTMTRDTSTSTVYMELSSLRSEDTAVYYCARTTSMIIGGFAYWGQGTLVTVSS VL: DIVMTQTPLSLSVTPGQPASISCRSSKSLLHRNAITYFYWYLHKPGQPPQLLIYQMSNLASGVPDRFSGSGSGTDFTLKISRVEAEDVGVYYCAQNLELPLTFGGGTKVEIK in terms of EC50 (nM), IL-8 secretion by primary human keratinocytes, 1 ng/ml human IL-36β is 0.227
